# Tested on: lambsquarters (Chenopodium album)
# assay name: Test B pre-/postemergence plant response
# Assay type: in vivo
# assay setup: Postemergence, 125 g ai/ha; visual rating after 13 to 15 days, scale 0 (no effect) to 100 (complete control)
readout type: Plant response rating, Lambsquarters

> print(dat)
                              smiles.string  meas.value
1  CCCCc1ncc(C(=O)C2=C(O)CCCC2=O)c(=O)n1-c1ccc(C)cc1          98
2  Cc1ccccc1-n1c(-c2cccc(Cl)c2)ncc(C(=O)C2=C(O)CCCC2=O)c1=O         100
3  CCCn1c(-c2cccs2)ncc(C(=O)C2=C(O)CCCC2=O)c1=O          98
4  Cc1ccccc1-c1ncc(C(=O)C2=C(O)CCCC2=O)c(=O)n1-c1ccccc1         100
5  CCCc1ncc(C(=O)C2=C(O)CCCC2=O)c(=O)n1-c1ccccc1C         100

----------
# System: windgrass (Apera spica-venti)
# assay name: Test B postemergence plant response
# Type: in vivo
# assay setup: 62 g ai/ha, postemergence; 0 is no effect, 100 is complete control; 13 to 15 days
Windgrass plant response rating (0 to 100 scale) vs 10: less than gives Yes; not less than gives No.

> print(dat)
                              smiles.string                  tested.system  assigned.label
1  CCCCc1ncc(C(=O)C2=C(O)CCCC2=O)c(=O)n1-c1ccc(C)cc1  windgrass (Apera spica-venti)             Yes
2  COCCCn1c(-c2cc(F)cc(F)c2)ncc(C(=O)C2=C(O)CCCC2=O)c1=O  windgrass (Apera spica-venti)              No
3  CCCCn1c(-c2cc(F)cc(F)c2)ncc(C(=O)C2=C(O)CCCC2=O)c1=O  windgrass (Apera spica-venti)              No
4  CCCn1c(-c2cc(F)cc(F)c2)ncc(C(=O)C2=C(O)CCCC2=O)c1=O  windgrass (Apera spica-venti)              No
5  O=C1CCCC(O)=C1C(=O)c1cnc(-c2ccccc2)n(C2CCCC2)c1=O  windgrass (Apera spica-venti)             Yes

----------
# Test system: purslane (common purslane, Portulaca oleracea)
# assay name: Test D pre-/postemergence plant response
# Type: in vivo
# assay setup: Postemergence, 125 g ai/ha; scale 0 to 100 (0 no effect, 100 complete control)
readout type: Plant response rating, Purslane

> print(dat)
                                   compound  meas.value
1  COCCn1c(-c2ccsc2)ncc(C(=O)C2=C(O)C3CCC(C3)C2=O)c1=O (stereo not shown)          35
2  O=C1CCCC(O)=C1C(=O)c1cnc(-c2ccccc2)n(CC2CCCO2)c1=O (stereo not shown)          50
3  COCCn1c(-c2cccc(C)c2)ncc(C(=O)C2=C(O)C3CCC(C3)C2=O)c1=O (stereo not shown)          40
4  COCCn1c(-c2ccccc2)ncc(C(=O)C2=C(O)CCCC2=O)c1=O          90

----------
# Tested on: velvetleaf (Abutilon theophrasti)
# assay name: Test A pre-/postemergence plant response
# Format: in vivo
# assay setup: Preemergence, 500 g ai/ha; 0 to 100 scale, 0 = no effect, 100 = complete control
Assign class by Plant response rating, Velvetleaf: not lower than 70 means Condition met; lower than 70 means Condition not met.

> print(dat)
                                   compound     assigned.label
1  O=C(C1=C(O)C2CCC(C2)C1=O)c1cnc(-c2ccccc2)n(C2CCCCC2)c1=O (centres unmarked)  Condition not met
2  O=C1CCCC(O)=C1C(=O)c1cnc(-c2cc(F)cc(F)c2)n(C2CCCCC2)c1=O      Condition met
3  COCCOCCn1c(-c2cc(F)cc(F)c2)ncc(C(=O)C2=C(O)CCCC2=O)c1=O      Condition met
4  O=C1CCCC(O)=C1C(=O)c1cnc(-c2cccc(F)c2)n(C2CCCCC2)c1=O      Condition met
5  O=C1CCCC(O)=C1C(=O)c1cnc(-c2cc(F)cc(F)c2)n(-c2ccccc2)c1=O      Condition met
6  O=C1CCCC(O)=C1C(=O)c1cnc(-c2cccc(C(F)(F)F)c2)n(C2CCCCC2)c1=O  Condition not met
7  Cc1cc(-n2c(-c3cccc(F)c3)ncc(C(=O)C3=C(O)CCCC3=O)c2=O)ccc1F      Condition met

----------
Measured Plant response rating, Velvetleaf, listed per entry for reference.
# Test system: velvetleaf (Abutilon theophrasti)
# assay name: Test A pre-/postemergence plant response
# Type: in vivo
# assay setup: Preemergence, 500 g ai/ha; visual injury, 0 to 100 scale (0 no effect, 100 complete control), approx. ten days
readout type: Plant response rating, Velvetleaf

> print(dat)
                                   compound  meas.value
1  CCCc1ncc(C(=O)C2=C(O)CCCC2=O)c(=O)n1Cc1ccc(OC)c(OC)c1          40
2  CCCCc1ncc(C(=O)C2=C(O)CCCC2=O)c(=O)n1-c1ccccc1         100
3  O=C1CCCC(OC(=O)C2CC2)=C1C(=O)c1cnc(-c2ccccc2)n(-c2ccccc2)c1=O         100
4  O=C1CCCC(O)=C1C(=O)c1cnc(-c2ccccc2Cl)n(-c2ccccc2)c1=O          70
5  Cc1ccc(-n2c(-c3ccccc3)ncc(C(=O)C3=C(O)CCCC3=O)c2=O)cc1          90
6  CCn1ncc(C(=O)c2cnc(-c3ccccc3)n(-c3ccccc3)c2=O)c1OS(=O)(=O)c1ccc(C)cc1          40
7  CCCn1c(-c2cccs2)ncc(C(=O)C2=C(O)CCCC2=O)c1=O         100
8  COCC(C)n1c(-c2ccccc2)ncc(C(=O)C2=C(O)CCCC2=O)c1=O (centres unmarked)         100

----------
The following molecules are shown together with reported Plant response rating, Foxtail, Giant values.
# Tested on: giant foxtail (Setaria faberii)
# assay name: Test B pre-/postemergence plant response
# Format: in vivo
# assay setup: Postemergence, 250 g ai/ha; scale 0 to 100 (0 no effect, 100 complete control)
readout type: Plant response rating, Foxtail, Giant

> print(dat)
                              smiles.string  meas.value
1  Cc1cc(-n2c(-c3ccccc3)ncc(C(=O)C3=C(O)CCCC3=O)c2=O)ccc1F          95
2  CCCCCn1c(-c2ccccc2)ncc(C(=O)C2=C(O)CCCC2=O)c1=O          98
3  CCCCc1ncc(C(=O)C2=C(O)CCCC2=O)c(=O)n1-c1ccc(C)cc1          90
4  Cc1ccc(-c2ncc(C(=O)C3=C(O)CCCC3=O)c(=O)n2-c2ccccc2)cc1          95
5  COCCn1c(-c2cccc(F)c2)ncc(C(=O)C2=C(O)CCCC2=O)c1=O          85
6  Cc1ccccc1-c1ncc(C(=O)C2=C(O)CCCC2=O)c(=O)n1-c1ccccc1          95

----------
Plant response rating, Rice reference
# System: rice (Oryza sativa)
# assay name: Test B flooded paddy test
# Type: in vivo
# assay setup: Flood (flooded paddy test), 62 g ai/ha; scale of 0 to 100 where 0 is no effect and 100 is complete control; 13 to 15 days
readout type: Plant response rating, Rice

> print(dat)
                                    compound                 readout.type  meas.value
 1  COCCCn1c(-c2cccc(C)c2)ncc(C(=O)C2=C(O)CCCC2=O)c1=O  Plant response rating, Rice           0
 2  CCCCn1c(-c2cccc(F)c2)ncc(C(=O)C2=C(O)C3CCC(C3)C2=O)c1=O (stereo not shown)  Plant response rating, Rice           0
 3  CCc1cccc(-c2ncc(C(=O)C3=C(O)CCCC3=O)c(=O)n2C2CCCCC2)c1  Plant response rating, Rice           0
 4  O=C1CCCC(O)=C1C(=O)c1cnc(-c2ccsc2)n(-c2ccccc2)c1=O  Plant response rating, Rice           0
 5  Cc1ccc(-c2ncc(C(=O)C3=C(O)CCCC3=O)c(=O)n2-c2ccccc2)cc1  Plant response rating, Rice           0
 6  COCCn1c(-c2cccc(C)c2)ncc(C(=O)C2=C(O)C3CCC(C3)C2=O)c1=O (stereo not shown)  Plant response rating, Rice          25
 7  CCCCc1ncc(C(=O)C2=C(O)CCCC2=O)c(=O)n1-c1ccc(C)cc1  Plant response rating, Rice           0
 8  CCCCn1c(-c2cccc(Br)c2)ncc(C(=O)C2=C(O)CCCC2=O)c1=O  Plant response rating, Rice           0
 9  O=C(C1=C(O)C2CCC(C2)C1=O)c1cnc(-c2ccsc2)n(CC2CCCO2)c1=O (stereo not shown)  Plant response rating, Rice           0
10  O=C1CCCC(O)=C1C(=O)c1cnc(-c2ccccc2)n(CC2CCCO2)c1=O (stereo not shown)  Plant response rating, Rice          15
11  O=C(C1=C(O)C2CCC(C2)C1=O)c1cnc(-c2ccccc2)n(C2CCCCCC2)c1=O (stereo not shown)  Plant response rating, Rice           0
12  CCCn1c(-c2ccsc2)ncc(C(=O)C2=C(O)C3CCC(C3)C2=O)c1=O (stereo not shown)  Plant response rating, Rice          30
13  COc1ccc(-n2c(-c3cccc(F)c3)ncc(C(=O)C3=C(O)CCCC3=O)c2=O)cc1  Plant response rating, Rice           0
14  CCCn1c(-c2ccco2)ncc(C(=O)C2=C(O)CCCC2=O)c1=O  Plant response rating, Rice           0
15  COCCn1c(-c2cc(F)cc(F)c2)ncc(C(=O)C2=C(O)CCCC2=O)c1=O  Plant response rating, Rice          20
16  CCCn1c(-c2cccc(Cl)c2)ncc(C(=O)C2=C(O)CCCC2=O)c1=O  Plant response rating, Rice          15
17  CCCCn1c(-c2cccc(Cl)c2)ncc(C(=O)C2=C(O)CCCC2=O)c1=O  Plant response rating, Rice           0
18  COCCn1c(-c2ccsc2)ncc(C(=O)C2=C(O)C3CCC(C3)C2=O)c1=O (stereo not shown)  Plant response rating, Rice          20
19  O=C1CCCC(O)=C1C(=O)c1cnc(-c2ccccc2)n(C2CCCC2)c1=O  Plant response rating, Rice          25
20  CCn1c(-c2cccc(C)c2)ncc(C(=O)C2=C(O)CCCC2=O)c1=O  Plant response rating, Rice          20
21  CCCCn1c(-c2cccc(F)c2)ncc(C(=O)C2=C(O)CCCC2=O)c1=O  Plant response rating, Rice           0
22  CC(C)n1c(-c2ccccc2)ncc(C(=O)C2=C(O)CCCC2=O)c1=O  Plant response rating, Rice          20
23  CCCc1ncc(C(=O)C2=C(O)CCCC2=O)c(=O)n1CC1CCCO1 (stereo not shown)  Plant response rating, Rice           0
24  O=C1CCCC(O)=C1C(=O)c1cnc(-c2cccc(F)c2)n(CCC(F)(F)F)c1=O  Plant response rating, Rice           0
25  Cc1cccc(Cl)c1-n1c(-c2ccccc2)ncc(C(=O)C2=C(O)CCCC2=O)c1=O  Plant response rating, Rice          10
